- target_or_system: PTGER4 (EP4) (Homo sapiens (Human), UniProt P35408)
- Sequence (P35408 whole entry): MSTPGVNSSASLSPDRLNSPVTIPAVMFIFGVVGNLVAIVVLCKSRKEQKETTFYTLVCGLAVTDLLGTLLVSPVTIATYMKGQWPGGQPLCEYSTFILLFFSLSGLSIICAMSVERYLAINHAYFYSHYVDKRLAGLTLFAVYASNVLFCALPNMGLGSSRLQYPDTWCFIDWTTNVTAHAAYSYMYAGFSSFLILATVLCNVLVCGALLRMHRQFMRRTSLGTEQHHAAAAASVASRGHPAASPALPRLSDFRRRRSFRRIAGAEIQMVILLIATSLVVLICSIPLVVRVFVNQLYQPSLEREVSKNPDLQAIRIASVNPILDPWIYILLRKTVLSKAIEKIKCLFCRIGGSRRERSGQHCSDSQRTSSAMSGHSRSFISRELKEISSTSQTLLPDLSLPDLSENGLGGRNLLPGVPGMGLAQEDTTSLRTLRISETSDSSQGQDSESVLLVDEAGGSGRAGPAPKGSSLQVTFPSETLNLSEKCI
- protocol_notes: cell-based
pIC50: −log10 of the molar value.
readout_name: pIC50

CCOc1cc(-c2cc(NCCc3cc(C)c4sccc4c3)ncn2)ccc1C(=O)O = 6.58
CSc1cc(-c2cc(NCCc3ccc4c(c3)OCCC4)ncn2)ccc1C(=O)O = 6.47
CCc1cc(-c2cc(NCCc3cc(F)c4sccc4c3)ncn2)sc1CC(=O)O = 7.60
CCOc1cc(-c2cc(NCCc3ccc4c(c3)OCCC4)ncn2)ccc1CC(=O)O = 6.38
CCOc1cc2c(cc1CCNc1cc(-c3ccc(C(=O)O)c(CC(C)C)c3)ncn1)OCCO2 = 6.76

[a] CCCc1cc(-c2cc(NCCc3cc(F)c4sccc4c3)ncn2)ccc1C(=O)NCCO
[b] Cc1cc(-c2cc(NCCc3cc(F)c4sccc4c3)ncn2)ccc1CC(=O)O
[c] CCOc1cc(-c2cc(NCCc3cc4ccsc4cc3OC)ncn2)sc1-c1noc(=O)[nH]1
stdin: Sort the 3 compounds by pIC50; largest first, smallest last. Submit the labels in the order that the ranking request calls for.
stdout: c, a, b
(c: 8.52, a: 6.79, b: 6.34)

====

- target_or_system: PTGER4 (EP4) (Homo sapiens (Human), UniProt P35408)
- protocol_notes: cell-based
pIC50: −log10 of the molar value.
readout_name: pIC50

Consider the worked cases shown below.
CCOc1cc(-c2cc(NCCc3ccc4ccn(CC)c4c3)ncn2)sc1C(=O)O = 6.31
CCOc1cc(-c2cc(NCCc3ccc4sccc4c3)ncn2)ccc1C(=O)O = 6.52
CCOc1cc(-c2cc(NCCc3ccc4sccc4c3)ncn2)ccc1C(C)C(=O)O (stereo not drawn) = 6.70
O=c1[nH]c(-c2ccc(-c3cc(NCCc4cc(F)c5sccc5c4)ncn3)cc2)no1 = 7.26
CCc1cc(-c2cc(NCCc3cc(F)c4sccc4c3)ncn2)ccc1C(=O)O = 6.75

[P] CCCc1cc(-c2cc(NCCc3cc4ccsc4c(F)c3OC)ncn2)ccc1CC(=O)O
[Q] Cc1cc(-c2cc(NCCc3cc(F)c4sccc4c3)ncn2)ccc1C(=O)O
[R] CCOc1cc(-c2cc(NCCc3cc4ccsc4c(F)c3OC)ncn2)ccc1C(=O)O
stdin: Sort the 3 compounds by pIC50; largest first, smallest last. Submit the labels in the order that the ranking request calls for.
stdout: R, P, Q

====

PTGER4 (EP4) (Homo sapiens (Human)) measurements of IC50, listed per entry.
readout_name: IC50 (nM)

[a] CCOc1cc(-c2cc(NCCc3ccc4ncccc4c3)ncn2)sc1-c1noc(=O)[nH]1 [Example 338]
[b] CCOc1cc(-c2cc(NCCc3cc4cccnc4cc3C)ncn2)sc1C(=O)O [Ex 177]
[c] CCOc1cc(-c2cc(NCCc3cc4cccnc4cc3F)ncn2)sc1C(=O)O [Ex 98]
[d] COc1cc2sccc2cc1CCNc1cc(-c2ccc(C(=O)O)c(OC3CCC3)c2)ncn1 [Ex 63]
[e] CCOc1cc(-c2cc(NCCc3cc4c(cc3OC)OCCO4)ncn2)sc1C(=O)O [Ex 26]
stdin: Output the listed items in decreasing order of IC50. Submit the labels in the order that the ranking request calls for.
stdout: b, d, c, e, a
(b: 156 nM, d: 50 nM, c: 33 nM, e: 22 nM, a: 15 nM)

[P] N#Cc1csc2ccc(CCNc3cc(-c4ccc(C(=O)O)c(OC5CCC5)c4)ncn3)cc12 [Ex 273]
[Q] CSc1cc(-c2cc(NCCc3cc4ccsc4cc3C#N)ncn2)ccc1C(=O)O [Ex 77]
[R] CCOc1cc(-c2cc(NCCc3cc4ccccc4cc3C#N)ncn2)ccc1OCC(=O)O [Ex 84]
stdin: Sort the 3 compounds by IC50; largest first, smallest last. Submit the labels in the order that the ranking request calls for.
stdout: P, Q, R
(P: 221 nM, Q: 154 nM, R: 19 nM)

[A] CCOc1cc(-c2cc(NCCc3cc4ccccc4c(F)c3OC)ncn2)ccc1C(=O)O [Ex 174]
[B] CCOc1cc(-c2cc(NCCc3ccc4cccc(F)c4c3)ncn2)ccc1CC(=O)O [Ex 314]
[C] COc1cc2c(cc1CCNc1cc(-c3ccc(C(=O)O)c(OC4CCC4)c3)ncn1)OCCO2 [Ex 187]
[D] CSc1cc(-c2cc(NCCc3ccc4scnc4c3)ncn2)ccc1C(=O)O [Ex 237]
[E] CCOc1cc(-c2cc(NCCc3ccc4cccnc4c3C)ncn2)sc1C(=O)O [Ex 22]
stdin: Sort the 5 compounds by IC50; largest first, smallest last. Submit the labels in the order that the ranking request calls for.
stdout: D, B, C, A, E
(D: 908 nM, B: 378 nM, C: 144 nM, A: 88 nM, E: 20 nM)

[a] COc1c(CCNc2cc(-c3cc(F)c(C(=O)O)c(OC4CCC4)c3)ncn2)c(F)c(F)c2cc(C)oc12 [Ex 262]
[b] CCOc1cc(-c2cc(NCCc3cc4ccccc4cc3OC(F)F)ncn2)ccc1OCC(=O)O [Ex 129]
[c] CCOc1cc(-c2cc(NCCc3cc(F)c4c(c3)OCCO4)ncn2)sc1C(=O)O [Ex 35]
[d] CSc1cc(-c2cc(NCCc3ccc4sccc4c3C)ncn2)ccc1CC(=O)O [Ex 326]
[e] CCOc1cc(-c2cc(NCCc3c(OC)cc4ccccc4c3C)ncn2)sc1C(=O)O [Ex 1]
stdin: Sort the 5 compounds by IC50; largest first, smallest last. Submit the labels in the order that the ranking request calls for.
stdout: d, a, b, c, e
